Some compounds, each annotated with its measured EC50.
Biological target: AVPR1A (Homo sapiens, UniProt P37288)
Sequence (P37288 whole entry): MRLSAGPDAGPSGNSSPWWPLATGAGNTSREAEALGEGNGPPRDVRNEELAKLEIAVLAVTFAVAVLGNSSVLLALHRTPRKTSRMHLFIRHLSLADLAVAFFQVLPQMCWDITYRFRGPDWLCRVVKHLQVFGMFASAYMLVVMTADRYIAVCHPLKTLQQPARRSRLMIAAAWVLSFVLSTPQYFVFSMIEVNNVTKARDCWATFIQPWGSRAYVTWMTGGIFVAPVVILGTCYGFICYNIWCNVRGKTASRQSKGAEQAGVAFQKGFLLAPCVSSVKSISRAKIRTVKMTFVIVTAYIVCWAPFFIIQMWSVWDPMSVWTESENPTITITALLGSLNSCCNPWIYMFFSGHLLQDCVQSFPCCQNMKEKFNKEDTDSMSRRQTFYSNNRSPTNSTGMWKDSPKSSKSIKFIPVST
Experiment: Safety47 Calcium Flux AVPR1A
Details: Agonist, read-out: RC50 (EC50)

| Smiles Notation | Reported Result |
| --- | --- |
| Cl.c1ccc2c(Nc3ccc4[nH]ccc4c3)nc(-c3ccncc3)nc2c1 | > 10 µM |

We next turn to a different compound, shown below.
The compound `Cl.Fc1cc(Nc2nc(-c3ccncc3)nc3ncccc23)cc2cc[nH]c12` , tested on AVPR1A (Homo sapiens, UniProt P37288), showed EC50 of > 10 µM

----------
Target: UniProt P04150
Sequence (P04150 whole entry): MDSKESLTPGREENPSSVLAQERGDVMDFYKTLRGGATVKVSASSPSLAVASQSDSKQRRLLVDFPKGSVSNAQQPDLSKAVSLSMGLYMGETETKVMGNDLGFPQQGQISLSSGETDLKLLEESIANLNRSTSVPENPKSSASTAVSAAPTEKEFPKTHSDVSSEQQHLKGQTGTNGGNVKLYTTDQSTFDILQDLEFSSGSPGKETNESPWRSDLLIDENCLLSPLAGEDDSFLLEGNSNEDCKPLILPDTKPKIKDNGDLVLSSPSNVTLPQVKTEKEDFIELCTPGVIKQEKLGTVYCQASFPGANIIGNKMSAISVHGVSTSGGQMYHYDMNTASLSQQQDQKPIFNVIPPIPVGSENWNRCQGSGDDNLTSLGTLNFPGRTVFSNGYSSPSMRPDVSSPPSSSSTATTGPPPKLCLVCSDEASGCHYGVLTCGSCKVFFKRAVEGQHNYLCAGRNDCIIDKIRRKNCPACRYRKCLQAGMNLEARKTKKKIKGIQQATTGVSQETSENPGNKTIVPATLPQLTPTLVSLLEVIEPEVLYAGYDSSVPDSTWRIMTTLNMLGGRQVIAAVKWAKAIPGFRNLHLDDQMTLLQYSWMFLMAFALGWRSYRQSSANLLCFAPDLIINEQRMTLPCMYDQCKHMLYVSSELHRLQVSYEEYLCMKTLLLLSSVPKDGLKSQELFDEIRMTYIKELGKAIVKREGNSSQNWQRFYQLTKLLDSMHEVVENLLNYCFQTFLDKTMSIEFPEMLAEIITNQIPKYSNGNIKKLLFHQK
Test: Safety47 NHR Protein Interaction GR
Settings: Antagonist, read-out: RC50 (IC50)
Readout: IC50

Data point: Cl.Fc1cc(Nc2nc(-c3ccncc3)nc3ncccc23)cc2cc[nH]c12 [BC18813] ; IC50 = > 10 µM

Data point: Cl.c1ccc2c(Nc3ccc4[nH]ccc4c3)nc(-c3ccncc3)nc2c1 [BC18630] ; IC50 = > 10 µM

----------
Target: ADRA1A (Homo sapiens, UniProt P35348)
Test: Safety47 Calcium Flux ADRA1A
Settings: Antagonist, read-out: RC50 (IC50)
pIC50: −log10 of the molar value.
Some compounds, each annotated with its measured pIC50.

Data point: `Cl.Fc1cc(Nc2nc(-c3ccncc3)nc3ncccc23)cc2cc[nH]c12` ; pIC50 = < 5.00

Data point: `Cl.c1ccc2c(Nc3ccc4[nH]ccc4c3)nc(-c3ccncc3)nc2c1` ; pIC50 = < 5.00

----------
Target: DRD1 (Homo sapiens, UniProt P21728)
Test: Safety47 cAMP DRD1
Conditions: Antagonist, read-out: RC50 (IC50)
Some compounds, each annotated with its measured IC50.
# number only, unit µM dropped from output

The compound Cl.c1ccc2c(Nc3ccc4[nH]ccc4c3)nc(-c3ccncc3)nc2c1 [BC18630] , tested on DRD1 (Homo sapiens, UniProt P21728), showed IC50 of 8.45

The compound Cl.Fc1cc(Nc2nc(-c3ccncc3)nc3ncccc23)cc2cc[nH]c12 [BC18813] , tested on DRD1 (Homo sapiens, UniProt P21728), showed IC50 of 9.45

----------
Some compounds, each annotated with its measured IC50.
Target: CNR2 (Homo sapiens, UniProt P34972)
Sequence (P34972 whole entry): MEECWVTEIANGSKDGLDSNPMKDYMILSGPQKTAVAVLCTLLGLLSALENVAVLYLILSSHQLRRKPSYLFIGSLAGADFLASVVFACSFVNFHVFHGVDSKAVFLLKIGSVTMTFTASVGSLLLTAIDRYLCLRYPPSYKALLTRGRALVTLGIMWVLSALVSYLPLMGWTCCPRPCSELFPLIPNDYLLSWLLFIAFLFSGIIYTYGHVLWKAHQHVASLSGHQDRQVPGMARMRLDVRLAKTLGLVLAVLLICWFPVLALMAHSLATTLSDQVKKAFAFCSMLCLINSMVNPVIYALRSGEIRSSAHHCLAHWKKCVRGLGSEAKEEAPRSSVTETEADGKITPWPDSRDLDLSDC
Assay: Safety47 cAMP CNR2
Conditions: Antagonist, read-out: RC50 (IC50)

| Compound | IC50 |
| --- | --- |
| Cl.c1ccc2c(Nc3ccc4[nH]ccc4c3)nc(-c3ccncc3)nc2c1 [BC18630] | > 10 µM |

We next turn to a different compound, shown below.
Data point: Cl.Fc1cc(Nc2nc(-c3ccncc3)nc3ncccc23)cc2cc[nH]c12 [BC18813] ; IC50 = > 10 µM

----------
Biological target: nAChR(a4/b2) (Homo sapiens, UniProt P17787+P43681)
Sequence (P43681 29-627 limits assumed): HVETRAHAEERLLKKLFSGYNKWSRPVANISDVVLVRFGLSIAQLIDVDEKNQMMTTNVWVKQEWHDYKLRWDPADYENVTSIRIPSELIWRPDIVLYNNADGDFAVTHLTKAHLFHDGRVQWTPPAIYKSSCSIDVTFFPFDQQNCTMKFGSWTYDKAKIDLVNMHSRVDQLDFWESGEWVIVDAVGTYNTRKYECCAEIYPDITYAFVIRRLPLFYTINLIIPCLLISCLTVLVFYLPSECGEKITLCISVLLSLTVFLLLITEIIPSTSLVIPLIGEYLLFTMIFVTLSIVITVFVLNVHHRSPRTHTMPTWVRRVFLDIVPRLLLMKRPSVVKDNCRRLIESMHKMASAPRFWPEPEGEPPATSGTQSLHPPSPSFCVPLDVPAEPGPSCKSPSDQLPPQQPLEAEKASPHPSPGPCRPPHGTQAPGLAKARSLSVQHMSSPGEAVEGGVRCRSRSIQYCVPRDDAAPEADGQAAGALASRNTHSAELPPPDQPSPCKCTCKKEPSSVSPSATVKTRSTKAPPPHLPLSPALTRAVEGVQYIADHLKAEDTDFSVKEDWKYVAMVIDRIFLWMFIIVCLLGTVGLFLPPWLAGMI
Sequence (P17787 26-502): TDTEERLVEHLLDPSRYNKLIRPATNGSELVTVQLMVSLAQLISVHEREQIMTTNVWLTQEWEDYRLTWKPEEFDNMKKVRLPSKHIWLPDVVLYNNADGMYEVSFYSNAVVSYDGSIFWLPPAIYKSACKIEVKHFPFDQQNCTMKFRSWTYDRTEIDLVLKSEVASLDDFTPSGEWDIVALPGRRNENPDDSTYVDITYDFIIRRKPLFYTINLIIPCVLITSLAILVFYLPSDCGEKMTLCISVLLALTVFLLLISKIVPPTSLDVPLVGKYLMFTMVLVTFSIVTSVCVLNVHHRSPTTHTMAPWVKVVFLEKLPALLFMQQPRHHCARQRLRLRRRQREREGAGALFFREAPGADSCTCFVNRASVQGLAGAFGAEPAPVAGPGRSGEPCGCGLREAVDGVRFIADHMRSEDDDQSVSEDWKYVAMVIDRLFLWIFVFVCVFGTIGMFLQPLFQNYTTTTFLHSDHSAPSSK
Assay: Safety47 Ion Channel nAChR(a4/b2)
Conditions: Opener, read-out: RC50 (EC50)
pEC50: −log10 of the molar value.
Readout: pEC50

| Smiles Notation | Reported Result |
| --- | --- |
| Cl.c1ccc2c(Nc3ccc4[nH]ccc4c3)nc(-c3ccncc3)nc2c1 | < 5.00 |

We next turn to a different compound, shown below.
Data point: `Cl.Fc1cc(Nc2nc(-c3ccncc3)nc3ncccc23)cc2cc[nH]c12` ; pEC50 = < 5.00

----------
Target: CNR1 (Homo sapiens, UniProt P21554)
Sequence (P21554 whole entry): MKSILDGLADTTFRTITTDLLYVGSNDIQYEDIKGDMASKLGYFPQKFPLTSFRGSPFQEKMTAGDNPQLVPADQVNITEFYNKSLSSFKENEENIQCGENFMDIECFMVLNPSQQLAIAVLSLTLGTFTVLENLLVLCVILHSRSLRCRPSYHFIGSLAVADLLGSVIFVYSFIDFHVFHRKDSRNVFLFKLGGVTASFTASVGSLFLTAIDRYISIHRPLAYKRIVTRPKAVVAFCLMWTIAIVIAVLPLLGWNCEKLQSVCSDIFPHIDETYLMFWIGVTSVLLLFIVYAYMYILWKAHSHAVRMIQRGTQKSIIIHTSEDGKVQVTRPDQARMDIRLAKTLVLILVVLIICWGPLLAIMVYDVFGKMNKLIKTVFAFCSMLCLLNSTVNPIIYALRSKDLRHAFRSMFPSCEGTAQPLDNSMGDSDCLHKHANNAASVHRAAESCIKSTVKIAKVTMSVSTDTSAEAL
Test: Safety47 cAMP CNR1
Details: Antagonist, read-out: RC50 (IC50)
Some compounds, each annotated with its measured IC50.

| Smiles Notation | IC50 |
| --- | --- |
| Cl.Fc1cc(Nc2nc(-c3ccncc3)nc3ncccc23)cc2cc[nH]c12 | > 10 µM |

Data point: `Cl.c1ccc2c(Nc3ccc4[nH]ccc4c3)nc(-c3ccncc3)nc2c1` ; IC50 = > 10 µM

----------
Target: KvLQT1/minK (Homo sapiens, UniProt P51787)
Assay: Safety47 Ion Channel KvLQT1/minK
Conditions: Blocker, read-out: RC50 (IC50)
Readout: IC50

| Compound | Reported Result |
| --- | --- |
| Cl.c1ccc2c(Nc3ccc4[nH]ccc4c3)nc(-c3ccncc3)nc2c1 [BC18630] | > 10 µM |

Data point: Cl.Fc1cc(Nc2nc(-c3ccncc3)nc3ncccc23)cc2cc[nH]c12 [BC18813] ; IC50 = > 10 µM

----------
Some molecules, each annotated with its measured pEC50.
Target: HTR3A (Homo sapiens, UniProt P46098)
Assay: Safety47 Ion Channel HTR3A
Settings: Opener, read-out: RC50 (EC50)
pEC50: −log10 of the molar value.

| Smiles Notation | Readout | Reported Result |
| --- | --- | --- |
| Cl.c1ccc2c(Nc3ccc4[nH]ccc4c3)nc(-c3ccncc3)nc2c1 | pEC50 | < 5.00 |

We next turn to a different molecule, shown below.
The molecule `Cl.Fc1cc(Nc2nc(-c3ccncc3)nc3ncccc23)cc2cc[nH]c12` , tested on HTR3A (Homo sapiens, UniProt P46098), showed pEC50 of < 5.00

----------
Molecular target: CNR1 (Homo sapiens, UniProt P21554)
Test: Safety47 cAMP CNR1
Settings: Agonist, read-out: RC50 (EC50)
Readout: pEC50
FYI, pEC50 means -log10 of a concentration in mol per litre.

Data point: `Cl.Fc1cc(Nc2nc(-c3ccncc3)nc3ncccc23)cc2cc[nH]c12` ; pEC50 = 5.21

----------
Target: HRH1 (Homo sapiens, UniProt P35367)
Sequence (P35367 whole entry): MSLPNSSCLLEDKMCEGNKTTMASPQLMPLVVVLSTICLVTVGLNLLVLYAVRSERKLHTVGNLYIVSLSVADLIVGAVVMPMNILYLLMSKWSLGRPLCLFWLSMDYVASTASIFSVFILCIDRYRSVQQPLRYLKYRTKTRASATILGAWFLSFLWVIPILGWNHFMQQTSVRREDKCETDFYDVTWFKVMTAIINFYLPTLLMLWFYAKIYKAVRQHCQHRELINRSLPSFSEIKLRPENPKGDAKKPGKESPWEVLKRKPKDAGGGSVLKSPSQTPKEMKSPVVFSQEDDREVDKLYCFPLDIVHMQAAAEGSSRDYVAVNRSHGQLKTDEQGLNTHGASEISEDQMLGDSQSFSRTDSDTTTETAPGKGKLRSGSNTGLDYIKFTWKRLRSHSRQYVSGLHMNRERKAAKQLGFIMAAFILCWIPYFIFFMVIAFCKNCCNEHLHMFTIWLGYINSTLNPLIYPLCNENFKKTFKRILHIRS
Assay: Safety47 Calcium Flux HRH1
Settings: Antagonist, read-out: RC50 (IC50)
Readout: IC50

| Compound | IC50 |
| --- | --- |
| Cl.c1ccc2c(Nc3ccc4[nH]ccc4c3)nc(-c3ccncc3)nc2c1 [BC18630] | > 10 µM |

We next turn to a different compound, shown below.
Data point: Cl.Fc1cc(Nc2nc(-c3ccncc3)nc3ncccc23)cc2cc[nH]c12 [BC18813] ; IC50 = > 10 µM

----------
Target: HTR2B (Homo sapiens)
Sequence (P41595 whole entry): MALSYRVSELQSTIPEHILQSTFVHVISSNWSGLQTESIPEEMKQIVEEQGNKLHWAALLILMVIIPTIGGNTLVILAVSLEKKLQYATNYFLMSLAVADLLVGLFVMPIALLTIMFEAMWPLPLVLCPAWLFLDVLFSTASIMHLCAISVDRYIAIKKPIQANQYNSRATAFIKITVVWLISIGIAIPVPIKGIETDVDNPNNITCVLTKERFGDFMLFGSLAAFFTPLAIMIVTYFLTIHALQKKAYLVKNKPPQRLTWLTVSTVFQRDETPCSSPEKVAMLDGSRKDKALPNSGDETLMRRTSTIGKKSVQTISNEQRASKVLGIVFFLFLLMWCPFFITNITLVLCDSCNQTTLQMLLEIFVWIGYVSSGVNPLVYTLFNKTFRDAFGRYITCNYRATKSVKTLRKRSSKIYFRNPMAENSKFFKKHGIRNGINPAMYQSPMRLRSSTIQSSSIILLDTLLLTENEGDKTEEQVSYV
Assay: Safety47 Calcium Flux HTR2B
Details: Antagonist, read-out: RC50 (IC50)
Readout: IC50

| Smiles Notation | Reported Result |
| --- | --- |
| Cl.c1ccc2c(Nc3ccc4[nH]ccc4c3)nc(-c3ccncc3)nc2c1 | > 10 µM |

We next turn to a different compound, shown below.
Data point: `Cl.Fc1cc(Nc2nc(-c3ccncc3)nc3ncccc23)cc2cc[nH]c12` ; IC50 = > 10 µM

----------
pIC50: −log10 of the molar value.
LCK (Homo sapiens, UniProt P06239): reported pIC50 for various compounds.
Sequence (P06239 whole entry, species assumed): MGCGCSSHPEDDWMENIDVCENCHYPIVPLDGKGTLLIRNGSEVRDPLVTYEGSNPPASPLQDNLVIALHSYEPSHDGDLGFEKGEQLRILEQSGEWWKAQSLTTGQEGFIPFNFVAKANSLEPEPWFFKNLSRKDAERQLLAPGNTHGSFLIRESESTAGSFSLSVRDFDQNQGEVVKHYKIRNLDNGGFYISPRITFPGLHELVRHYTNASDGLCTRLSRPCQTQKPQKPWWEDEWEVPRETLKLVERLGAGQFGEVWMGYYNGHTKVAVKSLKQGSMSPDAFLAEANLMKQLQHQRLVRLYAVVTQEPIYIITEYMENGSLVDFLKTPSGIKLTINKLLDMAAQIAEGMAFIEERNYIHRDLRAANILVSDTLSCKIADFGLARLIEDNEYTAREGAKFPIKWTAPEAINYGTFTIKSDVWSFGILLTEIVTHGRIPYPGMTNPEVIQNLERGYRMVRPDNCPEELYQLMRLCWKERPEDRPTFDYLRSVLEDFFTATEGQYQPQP

| Smiles Notation | pIC50 |
| --- | --- |
| Cl.c1ccc2c(Nc3ccc4[nH]ccc4c3)nc(-c3ccncc3)nc2c1 | < 5.00 |

We next turn to a different compound, shown below.
The compound `Cl.Fc1cc(Nc2nc(-c3ccncc3)nc3ncccc23)cc2cc[nH]c12` , tested on LCK (Homo sapiens, UniProt P06239), showed pIC50 of < 5.00

----------
pIC50: −log10 of the molar value.
PDE4D2 (Homo sapiens, UniProt Q08499): reported pIC50 for various compounds.

| Smiles Notation | pIC50 |
| --- | --- |
| Cl.Fc1cc(Nc2nc(-c3ccncc3)nc3ncccc23)cc2cc[nH]c12 | < 5.00 |

We next turn to a different compound, shown below.
The compound `Cl.c1ccc2c(Nc3ccc4[nH]ccc4c3)nc(-c3ccncc3)nc2c1` , tested on PDE4D2 (Homo sapiens, UniProt Q08499), showed pIC50 of < 5.00

----------
Molecular target: HTR1B (Homo sapiens, UniProt P28222)
Sequence (P28222 whole entry, species assumed): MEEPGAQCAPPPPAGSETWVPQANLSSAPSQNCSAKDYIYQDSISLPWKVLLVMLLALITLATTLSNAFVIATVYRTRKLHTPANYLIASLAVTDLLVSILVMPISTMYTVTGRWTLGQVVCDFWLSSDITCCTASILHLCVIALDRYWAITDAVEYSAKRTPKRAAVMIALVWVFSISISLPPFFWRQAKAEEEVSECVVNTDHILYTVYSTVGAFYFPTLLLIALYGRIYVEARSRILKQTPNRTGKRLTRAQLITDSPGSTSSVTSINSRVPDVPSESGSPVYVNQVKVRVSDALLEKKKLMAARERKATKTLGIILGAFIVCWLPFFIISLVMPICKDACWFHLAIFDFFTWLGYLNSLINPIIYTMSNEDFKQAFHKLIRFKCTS
Assay: Safety47 cAMP HTR1B
Conditions: Agonist, read-out: RC50 (EC50)
pEC50: −log10 of the molar value.
Some compounds, each annotated with its measured pEC50.

| Smiles Notation | pEC50 |
| --- | --- |
| Cl.c1ccc2c(Nc3ccc4[nH]ccc4c3)nc(-c3ccncc3)nc2c1 | < 5.00 |

We next turn to a different compound, shown below.
Data point: `Cl.Fc1cc(Nc2nc(-c3ccncc3)nc3ncccc23)cc2cc[nH]c12` ; pEC50 = < 5.00

----------
Target: hERG (Homo sapiens, UniProt Q12809)
Construct: purchased Eurofins Panlab (Safety47 Safety Scan, contract panel)
Test: Safety47 Ion Channel hERG
Format: cell-based
Details: human, Blocker, read-out: Max Response
Readout: Emax (%)
# number only, unit % dropped from output

| Smiles Notation | Emax, % |
| --- | --- |
| Cl.c1ccc2c(Nc3ccc4[nH]ccc4c3)nc(-c3ccncc3)nc2c1 | 6.14 |

We next turn to a different compound, shown below.
Data point: `Cl.Fc1cc(Nc2nc(-c3ccncc3)nc3ncccc23)cc2cc[nH]c12` ; Emax = 4.86
